The entries below come with measured pKa values attached.
- protocolDetails: Photostability, pKa was evaluated
- Format: physicochemical
The answer should be written as a number, with no unit following it.

O=C(O)c1cc2cc(F)c(O)c(F)c2oc1=O : 3.7

Exercise: Which pKa value belongs to "Cc1c(CC(=O)O)c(=O)oc2c(F)c(O)c(F)cc12" ?
Solution: 4.7

* * *

- protocolDetails: Photostability, pKa was evaluated
- Type: physicochemical
recordedMetric: pKa

O=C(O)c1cc2ccc(O)cc2oc1=O : 7.5
Cc1cc(=O)oc2c(F)c(O)ccc12 : 6.4

// next item, pKa requested
Exercise: Which pKa value belongs to "CCOC(=O)c1cc2cc(F)c(O)c(F)c2oc1=O" ?
Solution: 3.8
